Values were extracted from patent US20140148356.

Recorded binding signal values for a group of sequences are listed next.
target: HBcAg (Hepatitis B virus core protein, 21 kDa) (Hepatitis B virus) (UniProt P03146); details: affinity qPCR; 7.6 nM HBcAg, 1 nM DNA
Sequence (P03146 whole entry): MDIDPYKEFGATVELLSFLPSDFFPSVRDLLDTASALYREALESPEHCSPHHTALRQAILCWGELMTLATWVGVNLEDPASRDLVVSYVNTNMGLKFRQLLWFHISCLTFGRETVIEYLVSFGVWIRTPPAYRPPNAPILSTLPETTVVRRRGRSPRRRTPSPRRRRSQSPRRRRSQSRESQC

{"RESIDUE SEQUENCE": "AGCAGCACAGAGGTCAGATGAGGCCTGGTGATCGTGCCCAGGCCATATGAGCAAGGAACCCCTATGCGTGCTACCGTGAA [A-9]", "UNIT ANNOTATION": "% bound", "binding signal": 1}
{"RESIDUE SEQUENCE": "AGCAGCACAGAGGTCAGATGGTTACATGCGCAGTAGCCGACGTACTCTGGTAAAAGGTAGCCTATGCGTGCTACCGTGAA [A-38]", "UNIT ANNOTATION": "% bound", "binding signal": 7.2}
{"RESIDUE SEQUENCE": "AGCAGCACAGAGGTCAGATGTTGCATACGCCAAACAAGCATTGACAAGGTAACCCTGGGCCCTATGCGTGCTACCGTGAA [A-23]", "UNIT ANNOTATION": "% bound", "binding signal": 1.45}
{"RESIDUE SEQUENCE": "AGCAGCACAGAGGTCAGATGTTTCCGAGGGAGTGGAATTAGCAAGGTGGAAGTGTTTCTACCTATGCGTGCTACCGTGAA [A-18]", "UNIT ANNOTATION": "% bound", "binding signal": 8.3}
{"RESIDUE SEQUENCE": "AGCAGCACAGAGGTCAGATGACATCTAGAACCAACGGTTCTGTTTGATGAGAATTCGGCCCCTATGCGTGCTACCGTGAA [A-19]", "UNIT ANNOTATION": "% bound", "binding signal": 1.17}
